Source of measurements: ChEMBL document CHEMBL1201862

# Tested on: BT-549
# protocol-description: NCI tumour cell line growth inhibition, 48 h
Activity calls are given as the source filed them. Rule as the data show it: active = GI50 up to about 1.1 µM and inactive = higher.
Output constraint: value belongs to T (active), F (inactive)

These solved cases illustrate the format of a correct answer.
Lab log entry: C[Si](C)(N[Si](C)(C)OCCc1ccccc1)OCCc1ccccc1 — outcome as called in the assay?
F

State the result this test recorded for CCCC(=O)N[C@H]1CCc2cc(OC)c(OC)c(OC)c2-c2ccc(SC)c(=O)cc21 .
T

Further cases:
What is the recorded call for this compound in the test? CC1CCC2C(C)(C)CC3(C)CCC1C23O (centres undefined)
F

Recorded test outcome, item COc1cc(/C=C/C=C2\CCC/C(=C\C=C\c3ccc(O)c(OC)c3)C2=O)ccc1O
F

So what was the verdict on COc1ccc(CC2c3cc4c(cc3CCN2C)OCO4)c(C=O)c1OC (centres undefined) in this test?
F

Fill in: this test's call for Cc1ccc(N/N=C2\C3=C(CCC(C)(C)O3)C(=O)c3ccccc32)cc1 is ___
F

Outcome? Cc1ccc(-c2n[nH]c(=O)n2N)cc1
F

Fill in: this test's call for Cc1ccc(-c2c(-c3ccccc3)[nH]c(C)c2C(=O)ONC(=O)c2ccccc2)cc1 is ___
F

Per the assay record, what outcome was assigned to COc1ccc(C2CC(c3c(C)nn(-c4ccccc4)c3-c3ccc(C)cc3O)=NN2c2ccccc2)cc1 (centres undefined) ?
F

====

# System: IGROV-1
# protocol-description: NCI tumour cell line growth inhibition, 48 h
The source made the active and inactive calls. Rule as the data show it: active = GI50 up to about 1.1 µM and inactive = higher.
Returns: one label drawn from TRUE (active), FALSE (inactive)

The examples below pair each entry with its known result.
State the result this test recorded for O=C1O[C@@H](c2ccccc2)C[C@@H]1CN1CCOCC1 .
FALSE

Dear all, I need the recorded test outcome for COC(=O)[C@@H]1CN(C(=O)c2ccccc2)C(=O)N1C(=O)OCc1ccccc1 , thank you.
FALSE

Which outcome was entered for the compound CCOC(=O)/C=C/c1ccccn1 in this test?
FALSE

Could you now look at the following compound, please?
How did this test come out for CCOC(=O)c1c(Cl)nc2ccccc2c1N=[N+]=[N-] ?
FALSE

====

# Tested on: HCT-15
# protocol-description: NCI tumour cell line growth inhibition, 48 h
metric: GI50

Solved cases below.
Give a short answer stating reported GI50 for C1CCN(CCC2CCCCN2)CC1 (stereo unspecified) .
> 100 µM

For CN(CCc1ccc(Cl)c(Cl)c1)CCN(C)CCN1CCCC1 , write its GI50.
14.5 µM

State, in one line, measured GI50 of COc1ccc(C2=C(Cl)c3cc(OC)c(OC)cc3C2Cl)cc1OC (stereo unspecified)
18.2 µM

Answer with reported GI50 of COc1ccccc1C1c2cc3c(cc2OC(O)(CO)C1C(=O)O)OCO3.COc1ccccc1C1c2cc3c(cc2OC2(O)COC(=O)C12)OCO3 (stereo unspecified)
> 100 µM

Report GI50, nothing else, for this compound: O=C(O)C(SC(=S)c1ccc(C(=S)SC(C(=O)O)c2ccccc2)cc1)c1ccccc1 (stereo unspecified)
42.2 µM

---
Answer with the recorded GI50 for the compound listed here: O=[N+]([O-])c1ccc(Cl)cc1C1ON=C(c2ccccc2)N1C12CC3CC(CC(C3)C1)C2 (stereo unspecified)
> 100 µM

Give the value of GI50 reported for the following: O=C1NC(O)n2c(=O)[nH]c(=O)n21 (stereo unspecified)
> 100 µM

Entry CCOC(=O)N1CCC2(CC1)C[C@](C)(C(C)=O)C(C)O2 (stereo partly specified) needs its GI50 filled in; supply it.
> 100 µM

Given the compound COc1cc(CNc2nc3ccc(C(F)(F)F)cc3nc2-c2ccccc2)cc(OC)c1OC , write its reported GI50.
25.4 µM

Report measured GI50; entry is COC(=O)c1c2c(c(-c3ccccc3)c3c1-c1nc(Cl)ccc1CC3)CCc1ccc(Cl)nc1-2
> 100 µM

Indicate its recorded GI50; the compound in question is CN(C)NC(=S)NC12CC3CC(CC(C3)C1)C2
> 100 µM

Please indicate GI50 recorded for C[C@@H]1C(=O)O[C@@H]2C[C@@]1(C)[C@@H]1C(=O)C3(O)OC14C2(C)OC(=O)[C@@]4(O)CCC1C3C(O)C=C2CC=CC(=O)[C@@]21C (stereo partly specified)
34.4 µM

Complete the entry with GI50 for COc1ccc(C(=O)C(c2ccc(OC)cc2)C2(O)C(=O)Nc3ccc([N+](=O)[O-])cc32)cc1 (stereo unspecified)
> 100 µM

Quick one: give measured GI50 for CC(C)=CCC[C@@H](C)C1=C(O)C(=O)C(C)=C(Nc2ccccc2I)C1=O
6.56 µM

Query GI50 for C#CCOC(=O)c1ccccc1O
> 100 µM

Indicate its recorded GI50; the compound in question is CCOP(=O)(OCC)C(C)(C)OC(=O)NC#N
> 100 µM
